Ref: ChEMBL document CHEMBL4219228

# target_or_system: Voltage-gated calcium channel
# assay_info: Inhibition of KCl-induced cytosolic voltage gated calcium channel opening in human SH-SY5Y cells by Fluo-4 AM dye based fluorescence assay
pIC50: −log10 of the molar value.
Reported values of pIC50 for individual entries
readout_type: pIC50

> print(dat)
                                 smiles.str  readout.number
1  Cc1ccc2c(c1)c(CN1CCCCC1)cn2Cc1ccc(Cl)cc1            5.52
2  Cc1ccc2c(c1)c(CN1CCCCC1)cn2Cc1cccc(Cl)c1            5.66
3  Cc1ccc2c(c1)c(CN1CCCCC1)cn2Cc1ccccc1[N+](=O)[O-]            5.74
4   Cc1ccc2c(c1)c(CN1CCCCC1)cn2Cc1ccc(F)cc1            5.32
5      Cc1ccc2c(c1)c(CN1CCCCC1)cn2Cc1ccccc1            5.47
6   Cc1ccc(Cn2cc(CN3CCCCC3)c3cc(C)ccc32)cc1            5.44
7  Cc1ccc2c(c1)c(CN1CCCCC1)cn2Cc1cccc([N+](=O)[O-])c1            5.52
